Numbers sourced from patent US20240317752A1.

Reported GI50 is given for each of the following compounds.
Target or system: BaF3 BRAF-KIAA1549 fusion cells (Homo sapiens, UniProt P15056)
Construct: The BRAF-KIAA1549 fusion mutant was subcloned into pMXs-IRES-Blasticidin (RTV-016, Cell Biolabs, San Diego, CA); fused on or other part: Q9HCM3 (UPF0606 protein KIAA1549)
Sequence (P15056 whole entry, change not shown, the tested form may be a part): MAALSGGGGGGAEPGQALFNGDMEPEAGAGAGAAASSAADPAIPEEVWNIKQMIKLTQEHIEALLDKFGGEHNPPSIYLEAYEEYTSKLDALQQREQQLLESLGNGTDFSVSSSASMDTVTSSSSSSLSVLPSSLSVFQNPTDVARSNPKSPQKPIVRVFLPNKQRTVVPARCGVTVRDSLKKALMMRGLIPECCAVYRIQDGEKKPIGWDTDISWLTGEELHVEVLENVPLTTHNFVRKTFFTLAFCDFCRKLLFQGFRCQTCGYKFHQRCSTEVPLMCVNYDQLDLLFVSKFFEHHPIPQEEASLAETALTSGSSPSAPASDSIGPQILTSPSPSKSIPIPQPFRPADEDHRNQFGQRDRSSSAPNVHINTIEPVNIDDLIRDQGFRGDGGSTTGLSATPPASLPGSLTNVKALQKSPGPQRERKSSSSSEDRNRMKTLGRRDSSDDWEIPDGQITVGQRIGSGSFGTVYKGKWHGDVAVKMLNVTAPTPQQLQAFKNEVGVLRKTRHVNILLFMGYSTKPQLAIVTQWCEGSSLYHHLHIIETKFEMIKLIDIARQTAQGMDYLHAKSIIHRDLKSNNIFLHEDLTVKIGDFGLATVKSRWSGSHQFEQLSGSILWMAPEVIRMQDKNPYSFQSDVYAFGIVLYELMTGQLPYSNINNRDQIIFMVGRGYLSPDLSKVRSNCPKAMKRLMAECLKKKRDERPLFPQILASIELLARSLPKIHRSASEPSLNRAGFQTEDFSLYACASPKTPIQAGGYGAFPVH
Protocol text: BaF3 BRAF-KIAA1549 fusion cell proliferation assay (CellTiterGlo)
Assay type: cell-based
Measurement setup: 96 hours incubation, potency code

Compound | Target or system | Observed
Cc1ccc(NC(=O)CN2CC[C@@H](C(F)(F)F)C2)cc1Nc1ncccc1-c1ncnc2[nH]cnc12 | BaF3 BRAF-KIAA1549 fusion cells (Homo sapiens, UniProt P15056) | < 20 nM

The reported value for `Cc1nc2c(-c3cccnc3Nc3cc(NC(=O)c4cc(C(F)(F)F)c(OCCO)cn4)ccc3C)ncnc2[nH]1` in terms of GI50 is < 20 nM

For `Cc1cc(C(F)(F)F)cc(C(=O)Nc2ccc(C)c(Nc3ncccc3-c3ncnc4[nH]cnc34)c2)n1` the compound record lists GI50 as 20 to 100 nM

Data point: `C#Cc1ccc(C(=O)Nc2ccc(C)c(Nc3ncccc3-c3ncnc4[nH]cnc34)c2)cc1` ; GI50 = < 20 nM

In plain terms, `Cc1ccc(NC(=O)c2cccc(C(C)(C)C#N)c2)nc1Nc1ncccc1-c1ncnc2[nH]cnc12` has a documented GI50 of ≥ 500 nM

// Cc1ccc(NC(=O)CC2CCCN(C)CC2)cc1Nc1ncccc1-c1ncnc2[nH]cnc12 (centres unmarked) : GI50 value = ≥ 500 nM

Briefly, GI50 measured for Cc1ccc(NC(=O)CC2CCNC(C(F)(F)F)C2)cc1Nc1ncccc1-c1ncnc2[nH]cnc12 (centres unmarked) : ≥ 500 nM

Form: compound = `Cc1ccc(NC(=O)CC2CCC(F)(F)CC2)cc1Nc1ncccc1-c1ncnc2[nH]cnc12` ; GI50 = < 20 nM

Noted for `Cc1ccc(NC(=O)c2cc(C(F)(F)F)c(OC3CN(C)C3)cn2)cc1Nc1ncccc1-c1ncnc2[nH]cnc12` : its GI50 reads 100 to 500 nM

Value of GI50 reported for the compound Cc1ccc(NC(=O)CC2CCCCCO2)cc1Nc1ncccc1-c1ncnc2[nH]cnc12 (centres unmarked) is < 20 nM

// sample `Cc1ccc(NC(=O)c2cc(C#N)c(Cl)cn2)cc1Nc1ncccc1-c1ncnc2[nH]cnc12` , its GI50 was ≥ 500 nM

So for Cc1ccc(NC(=O)CC2CCCCOC2)cc1Nc1ncccc1-c1ncnc2[nH]cnc12 (centres unmarked) , the logged GI50 turned out to be 20 to 100 nM

# GI50 (compound: `Cc1nc(-c2cccnc2Nc2cc(NC(=O)c3cc(C(F)(F)F)ccn3)ccc2C)c2nc[nH]c2n1` ) is ≥ 500 nM

Given item `Cc1ccc(NC(=O)CN2CCCOCC2)cc1Nc1ncccc1-c1ncnc2[nH]cnc12` , the value recorded as its GI50 is ≥ 500 nM

Short answer for `Cc1ccc(NC(=O)c2cc(C3(C#N)CCC3)ccn2)cc1Nc1ncccc1-c1ncnc2[nH]cnc12` : GI50 was < 20 nM

response.value for Cc1ccc(NC(=O)C[C@H]2CCO[C@H](C(F)(F)F)C2)cc1Nc1ncccc1-c1ncnc2[nH]cnc12 (single isomer, unassigned) (field: GI50) = 20 to 100 nM

Lab book: GI50 of `Cc1ccc(NC(=O)CN2CCC[C@H](C(F)(F)F)C2)cc1Nc1ncccc1-c1ncnc2[nH]cnc12` noted as < 20 nM
